# procedureText: Moisture absorption/retention test
# Type: physicochemical
# experimentalSetup: 35% RH, after 7 days, following 65% RH
Recorded Increased weight ratio after 7 days at 35% RH (%) (B) values for a group of compounds are listed next.
Give just the number in %; leave the unit off.

Previously resolved entries follow.
* CCCCCCCC(=O)N[C@@H](C)C(=O)[O-].[Na+] [Example 13, N-octanoyl-L-alanine sodium salt] | 10.6
* CCCCCCCC(=O)N[C@H](C(=O)[O-])C(C)C.[Na+] [Example 12, N-octanoyl-L-valine sodium salt] | 8.4
* OCC(O)CO [Comparative Example 3, Glycerol, reference compound] | 13.2

Now turn to the next compound.
# input // lookup Increased weight ratio after 7 days at 35% RH (%) (B) for OC[C@@H](O)[C@@H](O)[C@H](O)[C@@H](O)CO [Comparative Example 4, Sorbitol, reference compound]
# output 0.5

====

# Tested on: filaggrin gene
# procedureText: Filaggrin gene expression test by acyl valines or acyl alanines (real time PCR, 24 hours)
# Assay type: cell-based
# experimentalSetup: Homo sapiens; 500 μM, 24 hours, NHEK (NB), control = 100%; read-out: Amplified amount (%)
Recorded activity at 500 µM values for a group of compounds are listed next.
Please report the result as a number followed by the unit.

• CCCCCC(=O)N[C@H](C(=O)O)C(C)C = 112%
• CCCCCCCC(=O)N[C@H](C(=O)O)C(C)C = 302%
• CCCC(=O)N[C@H](C(=O)O)C(C)C = 126%
• CCCCCC(=O)N[C@@H](C)C(=O)O = 125%
• CCCCCCCC(=O)N[C@@H](C)C(=O)O = 256%

# input // lookup activity at 500 µM for `CC(=O)N[C@H](C(=O)O)C(C)C`
# output 141%

# input // lookup activity at 500 µM for `CCCC(=O)N[C@@H](C)C(=O)O`
# output 162%
